Biological target: Cst6 (UniProt P40535)
Sequence (P40535 whole entry): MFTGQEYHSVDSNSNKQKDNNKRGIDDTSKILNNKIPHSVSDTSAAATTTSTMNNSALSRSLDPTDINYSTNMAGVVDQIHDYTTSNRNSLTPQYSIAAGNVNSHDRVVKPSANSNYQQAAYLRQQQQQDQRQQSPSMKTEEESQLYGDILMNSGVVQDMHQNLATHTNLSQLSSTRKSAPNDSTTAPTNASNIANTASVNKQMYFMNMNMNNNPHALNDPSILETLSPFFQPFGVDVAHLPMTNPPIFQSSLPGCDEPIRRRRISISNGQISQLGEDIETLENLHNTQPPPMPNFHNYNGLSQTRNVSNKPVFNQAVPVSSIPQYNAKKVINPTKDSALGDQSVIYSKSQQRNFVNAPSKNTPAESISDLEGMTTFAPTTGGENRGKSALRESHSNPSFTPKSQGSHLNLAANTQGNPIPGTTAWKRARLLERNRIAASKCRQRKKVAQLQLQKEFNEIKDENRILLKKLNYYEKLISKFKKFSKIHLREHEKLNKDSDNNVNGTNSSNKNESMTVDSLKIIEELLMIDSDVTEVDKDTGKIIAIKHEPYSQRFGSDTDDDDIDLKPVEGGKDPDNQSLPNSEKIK
Test: PBM E-score (8-mer binding enrichment) (E-score (-0.5 to 0.5)); higher = stronger / more preferred TF binding
Settings: protein concentration: 200 nM; construct: GST-DNA-binding domain
Whole data set: some 33,000 sequences, median “E-score (-0.5 to 0.5)” near -0.016, cut for the highest 2% near 0.31. This is one part of a sample in which the highest values are shown more often than they occur.
Kindly return Y if reported PBM E-score is no lower than -0.03; return N if it is lower.

1. CGTATTGC
Y
2. CGTCACAG
Y
3. TGTCACAA
Y
4. ACAAGGCG
Y
5. CAAGTCTC
N
6. GATAACCA
N
7. AAAGCCCA
Y
8. AGTCACAC
Y
9. CAAACGCG
Y
10. CTGAAACA
Y
11. CGTCACAA
Y
12. AGGCGAAT
Y
13. TATATAAA
Y
14. AGTCACAG
N
15. AAACAGGC
N
16. AGTCTCAA
N
17. ATTTGCTA
Y
18. CACGCCCA
N
19. AATAAATA
Y
20. GGAGCTGA
N

* * *

Biological target: Cst6 (UniProt P40535)
Assay: PBM E-score (8-mer binding enrichment) (E-score (-0.5 to 0.5)); higher = stronger / more preferred TF binding
Details: protein concentration: 200 nM; construct: GST-DNA-binding domain
The full ranking holds about 33,000 sequences; the median of “E-score (-0.5 to 0.5)” is about -0.016, and the highest 2% start at about 0.31. The sample as a whole holds a higher share of the highest values than the screen did.
recorded.metric: PBM E-score

1) CATCGTCA
0.372
2) ACTTGCCC
-0.215
3) AATCGTCT
0.11
4) AAAGCGCC
0.113
5) TATCGTGA
0.0604
6) ACTTAACT
0.0697
7) CATCGTCC
0.14
8) GATCGTCA
0.294
9) ATTGAGGG
-0.186
10) ATCATCAC
0.341
11) AGGTGCGA
-0.148

* * *

Reported PBM E-score values are given for each entry in this list.
Molecular target: Cst6 (UniProt P40535)
Assay: PBM E-score (8-mer binding enrichment) (E-score (-0.5 to 0.5)); higher = stronger / more preferred TF binding
Conditions: protein concentration: 200 nM; construct: GST-DNA-binding domain
The full ranking holds about 33,000 sequences; the median of “E-score (-0.5 to 0.5)” is about -0.016, and the highest 2% start at about 0.31. Shown is part of a subset that was picked to be rich in the highest values.
recorded.metric: PBM E-score

1) GCCGATAC
-0.136
2) GTGATGAA
0.154
3) CCTTATGA
0.159
4) ATTATGGC
0.0901
5) CACGTCTC
-0.097
6) CATCGCAG
-0.135
7) AACTGATT
0.0959
8) AGCCGCAT
0.338
9) CGTCATCA
0.487
10) ACACGGCA
0.282
11) ATGATTAG
0.158
12) AGCTATGA
0.101
13) ACGTAATG
0.476
14) ATTCTGCC
0.124
15) CGCTTCGC
-0.0922
16) GATGACAC
0.286
17) CCACCTAA
-0.0425
18) CGGTCCTC
-0.133
19) GCCGGCAA
-0.108
20) ATGATGCC
0.347
21) CTGATGGA
-0.0729
22) TACGTCTA
0.188
23) GGTCATCA
0.247
24) CTGATGCA
0.0731
25) CTGATTAA
0.161
26) AACGTCTC
-0.0757
27) AACGTCCC
-0.173
28) GATGACCC
-0.0821
29) GGAGAATA
0.103
30) AATTGCCC
-0.055
31) CATGAAAG
0.082
32) ACGAGGAT
-0.0239
33) TACGTCAA
0.484
34) GTCACATA
0.245
35) AGCCGCAC
0.188
36) GTGATGCA
0.383
37) TCGGAAAA
0.113
38) AGGCTGGC
-0.195
39) CAGTCGCG
-0.25
40) GATACGGC
0.139
41) AATGACAA
0.267
42) GCAGCCGA
-0.053
43) CTGTCGCA
-0.146
44) AAGTAATC
0.179
45) AATACGGG
-0.0401
46) GATGACTA
0.171

* * *

Entries and their PBM E-score
Biological target: Cst6 (UniProt P40535)
Assay: PBM E-score (8-mer binding enrichment) (E-score (-0.5 to 0.5)); higher = stronger / more preferred TF binding
Settings: protein concentration: 200 nM; construct: GST-DNA-binding domain
Over roughly 33,000 sequences, “E-score (-0.5 to 0.5)” has its median near -0.016; the highest 2% begin near 0.31. For the sample, the highest values were picked, then their nearest neighbours and some sequences at random.
recorded.metric: PBM E-score

1) ATCGTCAT
0.448
2) CAGGTTAG
-0.116
3) ATACGGGC
-0.204
4) GGACATAA
0.0407
5) ACATGACT
-0.0377
6) CCGAGGCG
0.0158
7) ACATGACA
0.274
8) ATCGTCAA
0.223
9) CCATGACA
0.271
10) ATCATGAA
0.17
11) CTCATGAG
0.079
12) CTCATGAC
0.335
13) TTACATAA
0.433
14) GACATGAC
0.275
15) ACATGACG
0.435
16) GTCGTCGA
-0.00727
17) CCATGACC
0.0749
18) ATAGCCAA
0.0258
19) GTCGTCAC
0.425
20) CCACTTCA
-0.197
21) ATCATGAG
0.146
22) CTCATGCA
0.00428

* * *

Quick list: PBM E-score per entry.
Biological target: Cst6 (UniProt P40535)
Experiment: PBM E-score (8-mer binding enrichment) (E-score (-0.5 to 0.5)); higher = stronger / more preferred TF binding
Conditions: protein concentration: 200 nM; construct: GST-DNA-binding domain
Whole data set: some 33,000 sequences, median “E-score (-0.5 to 0.5)” near -0.016, cut for the highest 2% near 0.31. The list comes from a sample in which the highest values are over-represented; it also holds close analogues and randomly drawn sequences.
recorded.metric: PBM E-score

1. GGTAATAC
0.111
2. AGTAATAC
-0.0264
3. AGCCAAAG
-0.114
4. CTTAATAA
0.155
5. ATGCCGAA
0.0887
6. GGTAATAA
0.247
7. GTGCCGGA
-0.104
8. TGTAATAA
0.329
9. ACGCTATC
0.093
10. AAGTCTTG
-0.0973
11. AAGCCGTA
0.173
12. CCAGGCTC
-0.28
13. AGGTTGAC
0.0459
14. GTGCCGTA
0.389
15. AAGCTTTC
0.0818
16. CGTAATAG
0.318
17. CGTAATAA
0.325
18. GATTGCGC
0.0307
19. GGGTTAAA
-0.06
20. CGCATAAG
0.102
21. AGTAATAA
0.302
22. ATCATCCC
0.154

* * *

Biological target: Cst6 (UniProt P40535)
Assay: PBM E-score (8-mer binding enrichment) (E-score (-0.5 to 0.5)); higher = stronger / more preferred TF binding
Conditions: protein concentration: 200 nM; construct: GST-DNA-binding domain
The full ranking holds about 33,000 sequences; the median of “E-score (-0.5 to 0.5)” is about -0.016, and the highest 2% start at about 0.31. Many of the other results were omitted from the sample, so the highest values are more common in it than they were.
I would appreciate it if you labelled entries true when PBM E-score is -0.1 or higher, otherwise false.

1) GTAAGTCA
true
2) GATGGCCC
false
3) AGCAAGCA
false
4) ATCATCAA
true
5) ACTCCAGT
false
6) CTCTACGC
false
7) ACCTAGGG
false
8) GGCATCAA
true
9) GTCATCAA
true
10) CTCATCTA
false
11) CTCATCAA
true

* * *

Biological target: Cst6 (UniProt P40535)
Assay: PBM E-score (8-mer binding enrichment) (E-score (-0.5 to 0.5)); higher = stronger / more preferred TF binding
Conditions: protein concentration: 200 nM; construct: GST-DNA-binding domain
Over roughly 33,000 sequences, “E-score (-0.5 to 0.5)” has its median near -0.016; the highest 2% begin near 0.31. Shown is part of a subset that was picked to be rich in the highest values.
recorded.metric: PBM E-score

1. CTTATGTC
0.105
2. CGTATTTA
0.358
3. ACTATGTC
0.0789
4. GGTACGAA
0.0828
5. AATTACCG
0.196
6. ATTATGTA
0.355
7. AATGTAAC
0.0559
8. CAGCGTGA
0.0151
9. GATGTAAC
0.341
10. ATTATGTG
0.228
11. GAAGTGGA
-0.16
12. ACCTATTA
0.0751
13. CATGTAAC
0.014
14. CATGTCAA
0.161
15. CATGTCAC
0.36
16. CTCATCGC
-0.0477
17. CATAGTTC
0.0666
18. CATGTCAG
0.144
19. GCCAACGC
-0.0319
20. CGGTATGC
-0.111
21. CAGCAGTC
-0.258
22. AGAAATCG
-0.0866
